The measurements presented in this section are drawn from the supplement of paper PMC5641865.

Tested on: Listeria monocytogenes 10403S
Experiment: growth inhibition relative to ceftriaxone-alone control; higher = stronger potentiation of ceftriaxone growth inhibition
Details: 10 µM; ceftriaxone 1 ug/ml; 12 h
measure name: growth inhibition (%)
// note: answer is a bare numeric in %

Reported growth inhibition, molecule CCCCOc1c(C(=O)c2c(F)cc(C)cc2F)c[nH]c2nncc1-2 : ____ -6.78

Need growth inhibition of N#Cc1cccc(Nc2nccc(-c3cnn4ncccc34)n2)c1 , thanks. -0.568

Could you share which growth inhibition value was measured for Cc1ccc(C(=O)NC2CCC2)cc1-c1ccc(C(=O)NCC2CC2)cc1 ? -1.49

* * *

The reader will find reported growth inhibition values listed item by item below.
Test system: Listeria monocytogenes 10403S
Experiment: growth inhibition relative to ceftriaxone-alone control; higher = stronger potentiation of ceftriaxone growth inhibition
Conditions: 10 µM; ceftriaxone 1 ug/ml; 12 h
Provide the reading as a plain figure in %.

Known growth inhibition results, listed for orientation:
In [3]: df
Out[3]:
                                   compound       measure_name  display_unit  value_measured
0  CC[C@@H]1C(=O)N(C)c2cnc(Nc3ccc(C(=O)NC4CCN(C)CC4)cc3OC)nc2N1C1CCCC1  growth inhibition             %            41.8
1    O=C1NC(=O)C(c2ccccc2Cl)=C1Nc1cccc(O)c1  growth inhibition             %            -3.8
2  CN(C)Cc1cccc(N=C(c2ccccc2)c2c(O)[nH]c3cc(C(=O)N(C)C)ccc23)c1  growth inhibition             %            26.5

Fill blank: measured growth inhibition of the compound FC(F)(F)c1cccc(-c2nn3ncccc3c2-c2ccnc(Nc3ccc4c(c3)OCCO4)n2)c1 is ____. -5.79

I have this compound here, O=C(NOC[C@H](O)CO)c1ccc(F)c(F)c1Nc1ccc(I)cc1F , and I need its recorded growth inhibition. 78.4

Which measured growth inhibition value corresponds to FC(F)(F)c1ccc(-c2nn3ncccc3c2-c2ccnc(Nc3ccc4c(c3)OCCO4)n2)cc1 ? -7.04

# growth inhibition lookup, item COc1cc(N2CCN(C(C)C)CC2)ccc1Nc1nc(Nc2ccc(F)cc2C(N)=O)c2cc[nH]c2n1 -11.9

Entry under review: Nc1nc(-c2ccc(F)cc2)c(-c2ccc3ncccc3n2)s1 . Reported growth inhibition? -1.57

Name the recorded growth inhibition for COc1cc2/c(=N/c3ccc(Br)cc3F)nc[nH]c2cc1OCC1CCN(C)CC1 [Vandetanib (Zactima)] . 24.2

If you can, please state the reported growth inhibition value of COc1cc2ncn(-c3cc(OCc4cccs4)c(C(N)=O)s3)c2cc1OC . -10.4

# growth inhibition lookup, item N#Cc1ccc2c(-c3ccnc(NC4CC4)n3)c(-c3ccc(F)cc3)nn2c1 7

Requested field: growth inhibition. Item: OCc1ccc(-c2nc(-c3ccc4c(c3)OCO4)c(-c3ccccn3)[nH]2)cc1 7.68

Reported growth inhibition for COc1cc(Nc2ncc(-c3ccccc3)o2)cc(OC)c1OC : what is it? 1.14

So what's the measured growth inhibition for this one? COc1cc2ncn(-c3cc(OCc4ccccc4C(F)(F)F)c(C(C)=O)s3)c2cc1OC 11.2

Quick one: growth inhibition of NC(=O)c1cccc(Nc2nccc(Nc3cccc(F)c3)n2)c1 ? -4.52

Data request, read-out growth inhibition, for Cc1cc(C(=O)NOCCO)c(Nc2ccc(I)cc2F)n(C)c1=O 13.2

May I ask what growth inhibition has been recorded for NCc1ccc(-n2c(-c3nonc3N)nc3cnccc32)cc1 ? -4.5

* * *

System: Listeria monocytogenes 10403S
Assay: growth inhibition relative to ceftriaxone-alone control; higher = stronger potentiation of ceftriaxone growth inhibition
Conditions: 10 µM; ceftriaxone 1 ug/ml; 12 h
Reported growth inhibition by item:
Kindly provide the numeric value in % only, without the unit symbol.

Sample records with growth inhibition:
>>> df
                                   compound  display_unit  value_measured
0  CS(=O)(=O)CCNCc1cc(-c2cc3c(Nc4ccc(OCc5cccc(F)c5)c(Cl)c4)ncnc3s2)cs1             %           -10.8
1  C=CC(=O)Nc1cccc(Sc2nc(Nc3ccc(N4CCN(C)CC4)cc3)ncc2Cl)c1             %            94.1
2  COc1cc2ncn(-c3cc(OCc4ccccc4S(C)(=O)=O)c(C#N)s3)c2cc1OC             %            12.7

Field request: growth inhibition | item: NC1(c2ccc(-c3nc4ccn5c(=O)[nH]nc5c4cc3-c3ccccc3)cc2)CCC1 86.4

Quick one: growth inhibition for O=C1NC(=O)/C(=C/c2ccc3c(c2)OC(F)(F)O3)S1 ? 41.2

For Cc1cc(O)cc(C)c1/C=C/c1cncc(C(N)=O)c1 , what is its reported growth inhibition? -0.223

Name the recorded growth inhibition for CCn1c(-c2nonc2N)nc2c(C#CC(C)(C)O)ncc(OCC3CCNCC3)c21 . 29.8

Return reported growth inhibition; argument: Cc1ccc(F)c(NC(=O)Nc2ccc(-c3cccc4[nH]nc(N)c34)cc2)c1 29.9

Please give the measured growth inhibition for this compound: COc1c(C(N)=O)cc(-c2ccc(Cl)cc2)cc1-c1ccc(S(N)(=O)=O)cc1 1.37

State the recorded growth inhibition for this entry: Nc1nonc1-c1nc2cnccc2n1C1CCCCC1 12.4

* * *

In this section we review reported growth inhibition values for a set of molecules.
Test system: Listeria monocytogenes 10403S
Assay: growth inhibition relative to ceftriaxone-alone control; higher = stronger potentiation of ceftriaxone growth inhibition
Details: 10 µM; ceftriaxone 1 ug/ml; 12 h
Structures can show the parent of a compound that is named as a salt.
Report as a plain number; the unit % is understood.

>>> print(df.to_string())
                                   molecule                      tested_on  value_measured
0  Nc1ccc(C(=O)Nc2cccc(-c3nc(N4CCOCC4)c4oc5ncccc5c4n3)c2)cn1  Listeria monocytogenes 10403S            31.1
1  Fc1ccc(Nc2nccc(-c3c(-c4ccc(C(F)(F)F)cc4)nn4ncccc34)n2)cc1F  Listeria monocytogenes 10403S           -3.35

Tell me the measured growth inhibition of O=c1cc(N2CCOCC2)oc2c(-c3cccc4c3sc3ccccc34)cccc12 , please. 26.2

Could you tell me which growth inhibition is on file for CS(=O)(=O)N1CCN(Cc2cc3nc(-c4cccc5[nH]ncc45)nc(N4CCOCC4)c3s2)CC1 ? 25.2

Need growth inhibition, item Cc1cc(Cl)cc2c1NC(=O)C2=NNc1ccc(S(N)(=O)=O)cc1 -9.29

Report growth inhibition for C#Cc1cccc(Nc2ncnc3cc(OCCOC)c(OCCOC)cc23)c1 [Erlotinib HCl] please. 18.6

Requested field: growth inhibition. Item: CC(C)COC(=O)c1ccc2c(c1)/C(=C/Nc1ccc(S(N)(=O)=O)cc1)C(=O)N2 -6.41

Any idea what growth inhibition was measured for CCS(=O)(=O)c1ccc(OC)c(Nc2ncc(-c3cccc(-c4ccccc4F)c3)o2)c1 ? 2.03

What does the data say about its growth inhibition? Entry: COc1cc(OC)c(/C=C/S(=O)(=O)Cc2ccc(OC)c(NCC(=O)O)c2)c(OC)c1 4.69

Fill in the blank: the reported growth inhibition of Nc1nc(Nc2ccc(S(N)(=O)=O)cc2)nn1C(=O)c1c(F)cccc1F is ____. 27.6

* * *

Test system: Listeria monocytogenes 10403S
Test: growth inhibition relative to ceftriaxone-alone control; higher = stronger potentiation of ceftriaxone growth inhibition
Conditions: 10 µM; ceftriaxone 1 ug/ml; 12 h
measure name: growth inhibition (%)
Return type: number; implicit unit %.

Use the examples below as a reference point.
>>> print(df.to_string())
                                     smiles  value_measured
0  CCn1c(-c2nonc2N)nc2cncc(C(=O)N3CC[C@H](N)C3)c21            7.57
1  CS(=O)(=O)CCNCc1coc(-c2ccc3ncnc(Nc4ccc(OCc5ccccc5)cc4)c3c2)c1            4.98

Dear colleague, I am looking for the recorded growth inhibition of the following compound: Cc1ccc(C(=O)Nc2ccc(CN3CCN(C)CC3)c(C(F)(F)F)c2)cc1C#Cc1cnc2cccnn12 94.4

Give the measured growth inhibition of CS(=O)(=O)CCN(CC#N)Cc1ccc(-c2ccc3ncnc(Nc4ccc(OCc5cccc(F)c5)c(Cl)c4)c3c2)o1 . 1.01

Recorded growth inhibition for COc1cccc(/C=N/Nc2ncnc3c2cnn3-c2cccc(OC)c2)c1 , please? -3.29

* * *

Test system: Listeria monocytogenes 10403S;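 also: End-point A600 read in BHI broth at 37 °C with 2% DMSO, inhibition computed as (1 − OD with compound plus ceftriaxone ÷ OD with ceftriaxone only) × 100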
Assay: growth inhibition relative to ceftriaxone-alone control; higher = stronger potentiation of ceftriaxone growth inhibition
Conditions: 10 µM; ceftriaxone 1 ug/ml; 12 h
measure name: growth inhibition (%)
Give your result in % as a bare value.

# count of solved cases: 5
>>> print(df.to_string())
                                     smiles                      tested_on  display_unit  value_measured
0  COc1ccc(-c2cc(-c3c[nH]nc3-c3ccccn3)ccn2)cc1  Listeria monocytogenes 10403S             %             3.1
1  Nc1nc(-c2cccc(Cl)c2)c(-c2ccc3ncccc3n2)s1  Listeria monocytogenes 10403S             %           -7.03
2  CCc1cccc(NC(=O)Nc2ccc(Oc3ccc4nc(NC(=O)OC)[nH]c4c3)cc2)c1  Listeria monocytogenes 10403S             %            9.75
3  CCNC(=O)O[C@H]1CN[C@H](C#Cc2cc3ncnc(Nc4ccc(OCc5cccc(F)c5)c(Cl)c4)c3s2)C1  Listeria monocytogenes 10403S             %            27.1
4     O=C(Nc1n[nH]c2nc(-c3ccco3)ccc12)C1CC1  Listeria monocytogenes 10403S             %           0.454

Return growth inhibition measured with Listeria monocytogenes 10403S given this compound: C[C@@H](N)[C@H]1CC[C@H](C(=O)Nc2ccncc2)CC1 24.6

growth inhibition of COc1cccc(-n2nc(C)c3c(N/N=C(\C)c4ccncc4)ncnc32)c1 on Listeria monocytogenes 10403S? -12.5

For Listeria monocytogenes 10403S, provide growth inhibition of COc1ccc(-c2oc3ncnc(N)c3c2-c2ccc(NC(=O)Nc3cc(C(F)(F)F)ccc3F)cc2)cc1 please. -3.49

Give recorded growth inhibition with Listeria monocytogenes 10403S for the following compound: Fc1ccc(-c2nn3ccccc3c2-c2ccncc2)cc1 20.7

Form: Entry = CC(C)CC(=O)Nc1n[nH]c2c1CN(C(=O)C1CCN(C)CC1)C2(C)C | System = Listeria monocytogenes 10403S | growth inhibition = ____ -44.3

What growth inhibition appears in the records for this compound with Listeria monocytogenes 10403S? Cc1ccc2c(-c3ccnc(Nc4cccc(C(F)(F)F)c4)n3)c(-c3ccccc3)nn2n1 -3.53

// fetch Listeria monocytogenes 10403S growth inhibition for CN(C)C(=O)O[C@@H]1CN[C@@H](C#Cc2cc3ncnc(Nc4ccc(OCc5cccc(F)c5)c(Cl)c4)c3s2)C1 -5.56
